- TEST_CONTEXT: in isopropanol, 308.15 K
PARAMETER_MEASURED: solubility (mole fraction)
Give a plain numeric answer without units written out.

Lab note: measured solubility (mole fraction) of CC(C)(C)OC(=O)N[C@@H](CC(N)=O)C(=O)O was 0.00372

----------
- TEST_CONTEXT: in n-propanol, 323.15 K
PARAMETER_MEASURED: solubility (mole fraction)
Give a plain numeric answer without units written out.

Lab note: measured solubility (mole fraction) of CC(C)(C)OC(=O)N[C@@H](CC(N)=O)C(=O)O was 0.00612

----------
- TEST_CONTEXT: in acetone, 313.15 K
PARAMETER_MEASURED: solubility (mole fraction)
Give a plain numeric answer without units written out.

Lab note: measured solubility (mole fraction) of CC(C)(C)OC(=O)N[C@@H](CC(N)=O)C(=O)O was 0.00222

Measured values drawn from BigSolDB 2.1 for this set.
